Measured pIC50 accompanies every entry in the list below.
molecular target: NRAS Q61K (Homo sapiens, UniProt P01111+P62937, Q61K); assay: Disruption of BRAF RBD interaction with Ras (FRET / MOA assay, with Cyclophilin A); assay type: biochemical; settings: NRAS Q61K; read-out: NRAS Q61K FRET data IC50
Sequence (P01111 whole entry Q61K): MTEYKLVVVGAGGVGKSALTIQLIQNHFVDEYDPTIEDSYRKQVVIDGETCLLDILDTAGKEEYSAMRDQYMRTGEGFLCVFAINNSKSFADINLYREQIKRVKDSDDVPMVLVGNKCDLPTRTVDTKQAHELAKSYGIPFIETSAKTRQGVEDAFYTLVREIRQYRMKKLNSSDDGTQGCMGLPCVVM
Sequence (P62937 whole entry): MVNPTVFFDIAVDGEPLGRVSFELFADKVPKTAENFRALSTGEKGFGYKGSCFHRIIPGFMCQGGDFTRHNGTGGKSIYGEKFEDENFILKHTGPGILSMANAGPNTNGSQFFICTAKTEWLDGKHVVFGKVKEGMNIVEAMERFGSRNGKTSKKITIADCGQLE
pIC50: −log10 of the molar value.
Endpoint label: pIC50

INSERT INTO assay_data (compound, recorded_value) VALUES
  ('CCn1c(-c2cccnc2[C@H](C)OC)c2c3cc(ccc31)N1CCC[C@@H](C[C@H](NC(=O)[C@H](C(C)C)N(C)C(=O)C3CCN(C(=O)C#CC(C)(C)N4CCC4)C3)C(=O)N3CCCC(N3)C(=O)OCC(C)(C)C2)C1 (some centres unmarked) [Example A617]', '< 5.00'),
  ('CCn1c(-c2cccnc2[C@H](C)OC)c2c3cc(ccc31)-c1csc(n1)C[C@H](NC(=O)[C@H](C(C)C)N(C)C(=O)N1CCOCC1)C(=O)N1CCC[C@H](N1)C(=O)OCC(C)(C)C2 (atropisomer, axis not shown) [Example A372]', '7.00 to 8.00');
